# Lookup of reported Ki keyed by entry
Biological target: dopamine-D2 receptors (Rattus norvegicus, UniProt P61169)
Construct: labels dopamine receptors in rat pituitary and brain; from tissue; host or cells: rat brain / pituitary membranes (from the title of the cited method)
Sequence (P61169 whole entry): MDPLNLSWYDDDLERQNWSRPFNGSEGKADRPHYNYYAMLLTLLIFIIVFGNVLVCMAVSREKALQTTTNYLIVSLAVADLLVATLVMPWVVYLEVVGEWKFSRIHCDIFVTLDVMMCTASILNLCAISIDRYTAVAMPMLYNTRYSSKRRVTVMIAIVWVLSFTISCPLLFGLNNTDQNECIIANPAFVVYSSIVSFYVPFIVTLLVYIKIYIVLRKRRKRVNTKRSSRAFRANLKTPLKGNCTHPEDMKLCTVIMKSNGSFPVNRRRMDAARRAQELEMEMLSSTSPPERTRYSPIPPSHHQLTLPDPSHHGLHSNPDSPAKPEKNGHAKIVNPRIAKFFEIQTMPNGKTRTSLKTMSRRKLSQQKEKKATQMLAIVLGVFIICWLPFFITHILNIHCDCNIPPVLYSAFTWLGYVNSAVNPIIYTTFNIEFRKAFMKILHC
Assay: In vitro affinity for dopamine-D2 receptors ([3H]-spiroperidol receptor binding assay, Creese et al.)
Details: receptor binding; read-out: Dopamine-D2 binding pKi (converted)
Reply numerically in nM, unit not repeated.

Study these solved cases before continuing.
{"Compound": "Cn1cc(CCCN2CCN(c3cccc4c3oc(=O)n4C)CC2)c2cc(F)ccc21 [compound 8]", "Value": 31.6}
{"Compound": "Cn1cc(CCCN2CCN(c3cccc4c3oc(=O)n4C)CC2)c2cc(Cl)ccc21 [compound 7]", "Value": 200}

Inquiry: So what's the measured Ki for this one? CCn1c(=O)oc2c(N3CCN(CCCc4c[nH]c5ccc(F)cc45)CC3)cccc21 [compound 16]
Reply text: 39.8

Inquiry: Can you look up the measured Ki of Cn1c(=O)oc2c(N3CCN(CCCc4c[nH]c5ccc(F)cc45)CC3)cccc21 [compound 9] for me?
Reply text: 79.4

Inquiry: Report Ki for Cn1c(=O)oc2c(N3CCN(CCCc4c[nH]c5ccc(C#N)cc45)CC3)cccc21 [compound 10] please.
Reply text: 126

Cited source for all entries: patent US20070142397A2
